Target: Schistosoma mansoni thioredoxin glutathione reductase (TGR)
Assay: qHTS Assay for the Inhibitors of Schistosoma Mansoni Peroxiredoxins; further: nearly all actives have a fitted effect of over 60% in size
Conditions: purified TGR, DTNB reduction, TNB absorbance 405 nm; series mostly up to 114 µM
In all, about 360,000 compounds went through this assay and about 11,000 (3.1%) were called active. Inconclusive results (about 4%) are left out. The call rests on the fitted dose curve; in most records, active means well fitted inhibition curve with a large enough effect; inconclusive means small, poorly fitted or top-dose-only effect; inactive means no such curve, though single readings can be large or run the other way. The sample holds actives, similar compounds and a random draw of the others, so the mix is not that of the screen.
Respond only with the outcome that fits, drawn from active, inactive

What classification did COc1ccc2[nH]c(=O)c(CN(Cc3nnnn3CCc3ccccc3)CC3CCCO3)cc2c1 (centres undefined) end up with in this test? inactive

Write down the call the test reported for this molecule. Item: CCCC(NS(=O)(=O)c1ccc(OC)cc1)C(=O)O (centres undefined) inactive

Dear colleague, could you share the recorded outcome for `COc1ccc(CN(C)C(=O)c2cc(-c3ccc(C)cc3C)nc3ccccc23)c(OC)c1OC` when you have a moment? inactive

For `COc1ccc(S(=O)(=O)/N=C2\C=C(NS(=O)(=O)c3ccccc3)C(=O)c3ccccc32)cc1` , which call appears in the assay record? active
